# measured on: soluble human IL-6Rc (shuIL-6Rc) recombinant fusion protein of IL-6R and IL-6 (human) (UniProt P08887)
# assay text: SPR (Biacore 2000), mAb captured on anti-human IgG Fc, analyte in solution, 25 C, 1:1 Langmuir
# koff annotations
Express the result in s⁻¹ but write the number alone.

{"binder": "NI-1201 wild type (NI-1201-WT) antibody (antibody, V domains shown, Fully human monoclonal IgG (captured by anti-human IgG Fc in Biacore); also called 39B9 VL1) VH: QVQLVQSGAEVKKPGSSVKVSCKASGGTFSSYAISWVRQAPGQGLEWMGGIIPLFDTTKYAQQFQGRVTITADESTSTAYMELSSLRSEDTAVFYCARDRDILTDYYPMGGMDVWGQGTTVTVSS VL: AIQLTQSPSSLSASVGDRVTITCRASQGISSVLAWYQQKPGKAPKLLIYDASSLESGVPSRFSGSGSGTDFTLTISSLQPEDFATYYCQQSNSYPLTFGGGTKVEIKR", "koff / s⁻¹": 0.000243}

API: the following record is the query input.
Q: # lookup: koff of NI-1201-A antibody (antibody, V domains shown) VH: QVQLVQSGAEVKKPGSSVKVSCKASGGTFSSYAISWVRQAPGQGLEWMGGIIPLFDTTKYAQKFQGRVTITADESTSTAYMELSSLRSEDTAVYYCARDRDILTDYYPMGGMDVWGQGTTVTVSS VL: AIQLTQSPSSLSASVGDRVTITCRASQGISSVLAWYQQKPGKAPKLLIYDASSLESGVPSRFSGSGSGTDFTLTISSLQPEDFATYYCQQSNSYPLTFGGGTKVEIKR
Ans: 0.000246
